- TESTED_ON: human FPR1 (Homo sapiens (Human))
- Sequence (P21462 whole entry): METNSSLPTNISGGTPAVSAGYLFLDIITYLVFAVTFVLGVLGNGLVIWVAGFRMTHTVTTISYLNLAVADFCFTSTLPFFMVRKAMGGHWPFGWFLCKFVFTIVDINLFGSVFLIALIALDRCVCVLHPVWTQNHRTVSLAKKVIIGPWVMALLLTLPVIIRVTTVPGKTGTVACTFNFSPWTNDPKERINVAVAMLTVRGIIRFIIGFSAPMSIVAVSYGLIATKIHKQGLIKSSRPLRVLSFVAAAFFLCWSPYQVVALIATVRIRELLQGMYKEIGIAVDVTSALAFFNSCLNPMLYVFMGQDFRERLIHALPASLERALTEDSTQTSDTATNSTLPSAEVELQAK
- TEST_SUMMARY: FPR1 cyclic adenosine monophosphate (cAMP) assay
- CONDITION_NOTES: CHO cells overexpressing human FPR1; forskolin 10 µM; inhibition of cAMP production; read-out: hFPR1 cAMP EC50
pEC50: −log10 of the molar value.
READOUT_KIND: pEC50

Past entries and their recorded results:
INSERT INTO measurements (compound, readout_kind, observed_value) VALUES
  ('COc1ccc([C@@H]2CN(c3c(C)ccn(C(F)F)c3=O)C(=O)[C@H]2NC(=O)c2ccc(OC(F)(F)F)cc2)cc1', 'pEC50', 8.70),
  ('COc1cc(F)c([C@@H]2CN(c3c(C)ccn(CC#N)c3=O)C(=O)[C@H]2NC(=O)c2ccc(OC(F)(F)F)cc2)c(F)c1 [Example 455]', 'pEC50', 8.00);

P: COc1cc(F)c([C@@H]2CN(c3cc4c(n(CCO)c3=O)CCCC4)C(=O)[C@H]2NC(=O)c2ccc(OC(F)F)cc2)c(F)c1
Q: COCC(C(=O)N1CCCC1)n1cccc(N2C[C@@H](c3ccc(OC)cc3)[C@H](NC(=O)c3ccc(OC(F)F)cc3)C2=O)c1=O (stereo partly shown)
R: COCCNc1ccnc(N2C[C@@H](c3c(F)cc(OC)cc3F)[C@H](NC(=O)c3ccc(Cl)cc3)C2=O)c1C(F)(F)F [Example 410]
S: COc1cc(F)c([C@@H]2CN(c3c(C)ccn(CCC(F)(F)F)c3=O)C(=O)[C@H]2NC(=O)c2ccc(Cl)cc2)c(F)c1 [Example 611]
In: Sequence the entries by pEC50, beginning with the highest number. State the ranking by listing the labels in the requested order.
Out: Q, P, S, R
(Q: 9.00, P: 8.52, S: 8.23, R: 5.48)
